- Target Of Assay: Coagulation factor X (Homo sapiens)
- Sequence (P00742 41-179 limits assumed): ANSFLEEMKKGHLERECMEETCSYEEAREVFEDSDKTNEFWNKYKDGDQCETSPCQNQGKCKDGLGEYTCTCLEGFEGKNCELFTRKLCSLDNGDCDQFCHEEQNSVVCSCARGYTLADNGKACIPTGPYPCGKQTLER
- Sequence (P00742 235-488 limits assumed): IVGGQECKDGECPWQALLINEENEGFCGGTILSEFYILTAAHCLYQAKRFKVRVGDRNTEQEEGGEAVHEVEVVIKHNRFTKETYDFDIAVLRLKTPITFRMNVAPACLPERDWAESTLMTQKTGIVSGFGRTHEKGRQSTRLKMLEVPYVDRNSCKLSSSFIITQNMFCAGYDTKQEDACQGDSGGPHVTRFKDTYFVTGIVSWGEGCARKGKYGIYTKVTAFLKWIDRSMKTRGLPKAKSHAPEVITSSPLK
pKi: −log10 of the molar value.
Measurement Type: pKi

[[record]]
smiles_repr = "C[n+]1ccc(-c2ccc(S(=O)(=O)N[C@H]3CCN(Cc4cccc(C(=N)N)c4)C3=O)cc2)cc1"
target_of_assay = "Coagulation factor X (Homo sapiens)"
measurement_type = "pKi"
readout_value = "< 6.00"


---

As shown below, each of these compounds has a reported pKi value.
- Target Of Assay: Serine protease 1 (Bos taurus, UniProt P00760)
- Sequence (P00760 whole entry): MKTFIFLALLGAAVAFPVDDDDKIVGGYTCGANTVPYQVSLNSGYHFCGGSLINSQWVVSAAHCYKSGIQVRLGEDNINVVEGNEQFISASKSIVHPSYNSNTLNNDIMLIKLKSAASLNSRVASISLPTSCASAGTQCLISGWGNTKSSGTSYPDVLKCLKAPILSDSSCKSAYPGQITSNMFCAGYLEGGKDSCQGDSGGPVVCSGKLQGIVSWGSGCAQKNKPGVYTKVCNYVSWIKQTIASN
- Test: Enzyme Assay and Determination of the Inhibition Constants.
pKi: −log10 of the molar value.
Measurement Type: pKi

[[record]]
smiles_repr = "N=C(N)c1ccc(O)c(CN2CC[C@H](NS(=O)(=O)c3ccc(-c4ccon4)s3)C2=O)c1"
measurement_type = "pKi"
readout_qualifier = "="
readout_value = 5.54

[[record]]
smiles_repr = "N=C(N)c1ccc(N)c(CN2CC[C@H](NS(=O)(=O)c3ccc(-c4ccon4)s3)C2=O)c1"
measurement_type = "pKi"
readout_qualifier = "="
readout_value = 5.77

[[record]]
smiles_repr = "N=C(N)c1ccc(N)c(CN2CC[C@H](NS(=O)(=O)c3ccc(-c4cccnc4)s3)C2=O)c1"
measurement_type = "pKi"
readout_qualifier = "="
readout_value = 5.82

[[record]]
smiles_repr = "COc1nccc(-c2ccc(S(=O)(=O)N[C@H]3CCN(Cc4cccc(C(=N)N)c4)C3=O)s2)n1"
measurement_type = "pKi"
readout_qualifier = "<"
readout_value = 5.54


---

As shown below, each of these molecules has a reported Ki value.
- Target Of Assay: Serine protease 1 (Bos taurus)
- Test: Enzyme Assay and Determination of the Inhibition Constants.
Measurement Type: Ki (nM)

[[record]]
smiles_repr = "N=C(N)c1cccc(CN2CC[C@H](NS(=O)(=O)c3ccc(-c4cccnc4)s3)C2=O)c1"
readout_qualifier = ">"
readout_value = 2900

[[record]]
smiles_repr = "N=C(N)c1cccc(CN2CC[C@H](NS(=O)(=O)c3ccc(-c4ccncc4)cc3)C2=O)c1"
readout_qualifier = ">"
readout_value = 2900

[[record]]
smiles_repr = "C[n+]1ccc(-c2ccc(S(=O)(=O)N[C@H]3CCN(Cc4cccc(C(=N)N)c4)C3=O)cc2)cc1"
readout_qualifier = ">"
readout_value = 2900

[[record]]
smiles_repr = "N=C(N)c1cccc(CN2CC[C@H](NS(=O)(=O)c3ccc(-c4ccon4)s3)C2=O)c1"
readout_qualifier = "="
readout_value = 1900

[[record]]
smiles_repr = "N=C(N)c1cccc(CN2CC[C@H](NS(=O)(=O)c3ccc(-c4ccccn4)s3)C2=O)c1"
readout_qualifier = "="
readout_value = 2100


---

- Target Of Assay: Serine protease 1 (Bos taurus)
- Test: Enzyme Assay and Determination of the Inhibition Constants.
- Condition Description: pH 7.5; 22 °C
Measurement Type: Ki (nM)

[[record]]
smiles_repr = "N=C(N)c1cccc(CN2CC[C@H](NS(=O)(=O)c3ccc(-c4ccccn4)cc3)C2=O)c1"
target_of_assay = "Serine protease 1 (Bos taurus)"
measurement_type = "Ki"
unit_of_measurement = "nM"
readout_qualifier = ">"
readout_value = 2900

[[record]]
smiles_repr = "COc1ccc2ccc(S(=O)(=O)N[C@H]3CCN(Cc4cc(C(=N)N)ccc4O)C3=O)cc2c1"
target_of_assay = "Serine protease 1 (Bos taurus)"
measurement_type = "Ki"
unit_of_measurement = "nM"
readout_qualifier = "="
readout_value = 305

[[record]]
smiles_repr = "COc1ccc2ccc(S(=O)(=O)N[C@H]3CCN(Cc4cc(N)cc(C(=N)N)c4)C3=O)cc2c1"
target_of_assay = "Serine protease 1 (Bos taurus)"
measurement_type = "Ki"
unit_of_measurement = "nM"
readout_qualifier = ">"
readout_value = 2900

[[record]]
smiles_repr = "COc1ccc2ccc(S(=O)(=O)N(C)[C@H]3CCN(Cc4cccc(C(=N)N)c4)C3=O)cc2c1"
target_of_assay = "Serine protease 1 (Bos taurus)"
measurement_type = "Ki"
unit_of_measurement = "nM"
readout_qualifier = "="
readout_value = 704

[[record]]
smiles_repr = "N=C(N)c1cccc(CN2CC[C@H](NS(=O)(=O)c3ccc(-c4ccccc4)cc3)C2=O)c1"
target_of_assay = "Serine protease 1 (Bos taurus)"
measurement_type = "Ki"
unit_of_measurement = "nM"
readout_qualifier = ">"
readout_value = 2900

[[record]]
smiles_repr = "COc1ccc2ccc(S(=O)(=O)N[C@H]3CCN(Cc4cccc(C(=N)N)c4)C3=O)cc2c1"
target_of_assay = "Serine protease 1 (Bos taurus)"
measurement_type = "Ki"
unit_of_measurement = "nM"
readout_qualifier = "="
readout_value = 853

[[record]]
smiles_repr = "COC(=O)COc1ccc(C(=N)N)cc1CN1CC[C@H](NS(=O)(=O)c2ccc3ccc(OC)cc3c2)C1=O"
target_of_assay = "Serine protease 1 (Bos taurus)"
measurement_type = "Ki"
unit_of_measurement = "nM"
readout_qualifier = "="
readout_value = 12

[[record]]
smiles_repr = "COc1ccc2ccc(S(=O)(=O)N(C)[C@H]3CCN(Cc4cc(C(=N)N)ccc4N)C3=O)cc2c1"
target_of_assay = "Serine protease 1 (Bos taurus)"
measurement_type = "Ki"
unit_of_measurement = "nM"
readout_qualifier = "="
readout_value = 189


---

- Target Of Assay: Serine protease 1 (Bos taurus)
- Sequence (P00760 whole entry): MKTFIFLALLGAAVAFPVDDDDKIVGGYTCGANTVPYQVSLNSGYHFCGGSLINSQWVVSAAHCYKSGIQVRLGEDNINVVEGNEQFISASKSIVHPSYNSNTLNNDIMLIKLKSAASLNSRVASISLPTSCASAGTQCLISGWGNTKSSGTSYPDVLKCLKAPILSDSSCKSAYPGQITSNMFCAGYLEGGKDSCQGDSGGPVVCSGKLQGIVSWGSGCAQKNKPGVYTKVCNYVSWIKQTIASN
- Test: Enzyme Assay and Determination of the Inhibition Constants.
- Condition Description: pH 7.5; 22 °C
Measurement Type: Ki

[[record]]
smiles_repr = "COc1ccc2ccc(S(=O)(=O)N(C)[C@H]3CCN(Cc4cc(C(=N)N)ccc4NC(C)=O)C3=O)cc2c1"
target_of_assay = "Serine protease 1 (Bos taurus)"
readout_value = "> 2900 nM"

[[record]]
smiles_repr = "COc1ccc2ccc(S(=O)(=O)N[C@H]3CCN(Cc4cc(C(=N)N)ccc4OCC(=O)O)C3=O)cc2c1"
target_of_assay = "Serine protease 1 (Bos taurus)"
readout_value = "> 2900 nM"

[[record]]
smiles_repr = "COc1ccc2ccc(S(=O)(=O)N[C@H]3CCN(Cc4ccc(O)c(C(=N)N)c4)C3=O)cc2c1"
target_of_assay = "Serine protease 1 (Bos taurus)"
readout_value = "> 2900 nM"

[[record]]
smiles_repr = "COc1ccc2ccc(S(=O)(=O)N[C@H]3CCN(Cc4cc(C(=N)N)ccc4N)C3=O)cc2c1"
target_of_assay = "Serine protease 1 (Bos taurus)"
readout_value = "299 nM"

